target: ATP-binding cassette transporter A1 (ABCA1) (mouse, UniProt P41233 1-2261); test: cell-based or functional assay
Sequence (P41233 whole entry): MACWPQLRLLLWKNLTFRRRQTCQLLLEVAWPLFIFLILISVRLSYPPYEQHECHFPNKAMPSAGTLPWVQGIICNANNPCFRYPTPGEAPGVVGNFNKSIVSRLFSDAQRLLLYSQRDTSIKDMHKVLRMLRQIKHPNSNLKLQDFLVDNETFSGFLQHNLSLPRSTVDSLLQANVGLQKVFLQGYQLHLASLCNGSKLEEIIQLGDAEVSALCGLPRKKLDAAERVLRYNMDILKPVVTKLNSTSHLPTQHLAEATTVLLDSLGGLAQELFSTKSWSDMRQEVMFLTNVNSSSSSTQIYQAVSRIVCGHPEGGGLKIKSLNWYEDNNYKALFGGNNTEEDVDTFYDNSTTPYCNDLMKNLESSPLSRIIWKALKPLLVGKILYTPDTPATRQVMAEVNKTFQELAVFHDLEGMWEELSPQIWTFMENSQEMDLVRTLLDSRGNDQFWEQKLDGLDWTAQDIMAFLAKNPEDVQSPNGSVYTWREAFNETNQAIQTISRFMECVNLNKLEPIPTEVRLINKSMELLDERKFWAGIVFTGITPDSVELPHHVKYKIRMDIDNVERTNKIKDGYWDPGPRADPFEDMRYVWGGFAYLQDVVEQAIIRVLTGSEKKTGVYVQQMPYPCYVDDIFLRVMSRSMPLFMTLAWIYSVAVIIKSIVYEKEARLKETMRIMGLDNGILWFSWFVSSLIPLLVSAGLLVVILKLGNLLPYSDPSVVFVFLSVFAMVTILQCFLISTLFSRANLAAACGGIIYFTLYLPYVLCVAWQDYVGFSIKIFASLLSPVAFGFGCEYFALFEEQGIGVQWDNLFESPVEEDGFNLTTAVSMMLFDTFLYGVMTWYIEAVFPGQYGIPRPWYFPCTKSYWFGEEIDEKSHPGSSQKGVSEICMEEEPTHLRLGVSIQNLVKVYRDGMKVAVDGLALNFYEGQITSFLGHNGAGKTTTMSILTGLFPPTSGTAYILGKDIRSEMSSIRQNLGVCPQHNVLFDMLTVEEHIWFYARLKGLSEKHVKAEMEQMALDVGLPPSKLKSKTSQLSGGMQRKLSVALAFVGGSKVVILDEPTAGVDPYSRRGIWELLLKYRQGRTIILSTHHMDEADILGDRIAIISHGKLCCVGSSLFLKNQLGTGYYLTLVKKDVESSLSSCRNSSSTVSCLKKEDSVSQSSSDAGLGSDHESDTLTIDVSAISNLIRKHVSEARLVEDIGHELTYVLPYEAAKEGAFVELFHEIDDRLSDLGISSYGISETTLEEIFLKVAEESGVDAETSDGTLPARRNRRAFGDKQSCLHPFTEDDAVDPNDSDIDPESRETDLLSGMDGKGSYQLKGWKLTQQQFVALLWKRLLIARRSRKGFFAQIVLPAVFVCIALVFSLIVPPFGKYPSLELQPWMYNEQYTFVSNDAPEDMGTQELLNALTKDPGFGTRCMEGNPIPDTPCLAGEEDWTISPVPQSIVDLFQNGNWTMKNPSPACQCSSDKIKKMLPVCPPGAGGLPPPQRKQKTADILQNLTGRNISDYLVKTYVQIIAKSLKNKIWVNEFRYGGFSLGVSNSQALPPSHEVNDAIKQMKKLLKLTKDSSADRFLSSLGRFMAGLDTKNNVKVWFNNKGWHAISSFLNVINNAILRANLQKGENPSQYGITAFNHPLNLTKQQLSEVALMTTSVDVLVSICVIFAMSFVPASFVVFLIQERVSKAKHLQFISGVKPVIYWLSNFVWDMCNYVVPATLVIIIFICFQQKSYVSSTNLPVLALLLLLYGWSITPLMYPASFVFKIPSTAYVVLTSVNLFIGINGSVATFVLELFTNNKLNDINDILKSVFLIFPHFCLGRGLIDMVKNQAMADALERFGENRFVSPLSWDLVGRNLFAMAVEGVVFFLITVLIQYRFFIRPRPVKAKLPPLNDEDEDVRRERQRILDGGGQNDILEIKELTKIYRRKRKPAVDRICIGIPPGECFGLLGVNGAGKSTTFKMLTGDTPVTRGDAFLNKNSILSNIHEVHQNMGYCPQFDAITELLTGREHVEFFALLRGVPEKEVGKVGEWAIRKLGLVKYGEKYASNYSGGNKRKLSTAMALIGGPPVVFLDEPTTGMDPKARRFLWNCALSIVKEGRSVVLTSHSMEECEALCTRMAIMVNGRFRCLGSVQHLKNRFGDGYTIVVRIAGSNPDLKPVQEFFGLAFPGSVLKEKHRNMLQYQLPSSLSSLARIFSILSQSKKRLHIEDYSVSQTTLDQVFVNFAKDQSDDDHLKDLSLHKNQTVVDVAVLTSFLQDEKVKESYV
*1 amine or outer side, *2 acyl side, *3 side chain or, on linkers, in order; H or OH if unused. Where no end group is shown, it is not given here. [ ]: non-standard residue; d: D form. S6H = (2S)-2-aminooct-7-enoic acid, C=CCCCC[C@H](N[*:1])C(=O)[*:2]; dGly(6-heptenyl) = C=CCCCCC[C@@H](N)C(=O)O; Ala(5-hexenyl) = C=CCCCCC[C@H](N)C(=O)O; Aib = CC(C)(N)C(=O)O
Field: ABCA1-dependent cholesterol efflux, % at 100 uM. Provide a value for each of the binders that follow.
Give bare numbers, in %.

Below: 4 binders and their reported ABCA1-dependent cholesterol efflux, % at 100 uM.
Ac-PVLDEFREKLNEELEA[Ala(5-hexenyl)]KQKLK [CONS[S7H^17]]    1
Ac-P[S6H]LDEFREKLNEELEALKQKLK (not fully specified (C-terminus)) [CONS[S6H^2]]    1
Ac-P[dGly(6-heptenyl)]LDEFREKLNEELEALKQKLK (not fully specified (C-terminus)) [CONS[R7H^2]]    6.3
Ac-PVLDEFREKLNE[Aib]LEALKQKLK (not fully specified (C-terminus)) [AIB13]    6

Data point: Ac-PVLDE[Ala(5-hexenyl)]REKLNE[Ala(5-hexenyl)]LEALKQKLKGC(branched mPEG 40 kDa) [CONS[S7H^6,13]-GC-PEG40] ; ABCA1-dependent cholesterol efflux, % at 100 uM = 1
